Entries and their pIC50
molecular target: L-type calcium channel (LTCC) (Rattus norvegicus); construct: differentiated A7r5 cells were trypsinized, then seeded on tissue culture treated 96-well clear-bottom black plates; endogenous in cells; experiment: FLIPR calcium mobilization (and/or electrophysiological) assay for L-type calcium channel; conditions: calcium mobilization and/or electrophysiological in vitro assay; differentiated A7r5 cells, 90 mM KCl
Sequence (P22002 whole entry): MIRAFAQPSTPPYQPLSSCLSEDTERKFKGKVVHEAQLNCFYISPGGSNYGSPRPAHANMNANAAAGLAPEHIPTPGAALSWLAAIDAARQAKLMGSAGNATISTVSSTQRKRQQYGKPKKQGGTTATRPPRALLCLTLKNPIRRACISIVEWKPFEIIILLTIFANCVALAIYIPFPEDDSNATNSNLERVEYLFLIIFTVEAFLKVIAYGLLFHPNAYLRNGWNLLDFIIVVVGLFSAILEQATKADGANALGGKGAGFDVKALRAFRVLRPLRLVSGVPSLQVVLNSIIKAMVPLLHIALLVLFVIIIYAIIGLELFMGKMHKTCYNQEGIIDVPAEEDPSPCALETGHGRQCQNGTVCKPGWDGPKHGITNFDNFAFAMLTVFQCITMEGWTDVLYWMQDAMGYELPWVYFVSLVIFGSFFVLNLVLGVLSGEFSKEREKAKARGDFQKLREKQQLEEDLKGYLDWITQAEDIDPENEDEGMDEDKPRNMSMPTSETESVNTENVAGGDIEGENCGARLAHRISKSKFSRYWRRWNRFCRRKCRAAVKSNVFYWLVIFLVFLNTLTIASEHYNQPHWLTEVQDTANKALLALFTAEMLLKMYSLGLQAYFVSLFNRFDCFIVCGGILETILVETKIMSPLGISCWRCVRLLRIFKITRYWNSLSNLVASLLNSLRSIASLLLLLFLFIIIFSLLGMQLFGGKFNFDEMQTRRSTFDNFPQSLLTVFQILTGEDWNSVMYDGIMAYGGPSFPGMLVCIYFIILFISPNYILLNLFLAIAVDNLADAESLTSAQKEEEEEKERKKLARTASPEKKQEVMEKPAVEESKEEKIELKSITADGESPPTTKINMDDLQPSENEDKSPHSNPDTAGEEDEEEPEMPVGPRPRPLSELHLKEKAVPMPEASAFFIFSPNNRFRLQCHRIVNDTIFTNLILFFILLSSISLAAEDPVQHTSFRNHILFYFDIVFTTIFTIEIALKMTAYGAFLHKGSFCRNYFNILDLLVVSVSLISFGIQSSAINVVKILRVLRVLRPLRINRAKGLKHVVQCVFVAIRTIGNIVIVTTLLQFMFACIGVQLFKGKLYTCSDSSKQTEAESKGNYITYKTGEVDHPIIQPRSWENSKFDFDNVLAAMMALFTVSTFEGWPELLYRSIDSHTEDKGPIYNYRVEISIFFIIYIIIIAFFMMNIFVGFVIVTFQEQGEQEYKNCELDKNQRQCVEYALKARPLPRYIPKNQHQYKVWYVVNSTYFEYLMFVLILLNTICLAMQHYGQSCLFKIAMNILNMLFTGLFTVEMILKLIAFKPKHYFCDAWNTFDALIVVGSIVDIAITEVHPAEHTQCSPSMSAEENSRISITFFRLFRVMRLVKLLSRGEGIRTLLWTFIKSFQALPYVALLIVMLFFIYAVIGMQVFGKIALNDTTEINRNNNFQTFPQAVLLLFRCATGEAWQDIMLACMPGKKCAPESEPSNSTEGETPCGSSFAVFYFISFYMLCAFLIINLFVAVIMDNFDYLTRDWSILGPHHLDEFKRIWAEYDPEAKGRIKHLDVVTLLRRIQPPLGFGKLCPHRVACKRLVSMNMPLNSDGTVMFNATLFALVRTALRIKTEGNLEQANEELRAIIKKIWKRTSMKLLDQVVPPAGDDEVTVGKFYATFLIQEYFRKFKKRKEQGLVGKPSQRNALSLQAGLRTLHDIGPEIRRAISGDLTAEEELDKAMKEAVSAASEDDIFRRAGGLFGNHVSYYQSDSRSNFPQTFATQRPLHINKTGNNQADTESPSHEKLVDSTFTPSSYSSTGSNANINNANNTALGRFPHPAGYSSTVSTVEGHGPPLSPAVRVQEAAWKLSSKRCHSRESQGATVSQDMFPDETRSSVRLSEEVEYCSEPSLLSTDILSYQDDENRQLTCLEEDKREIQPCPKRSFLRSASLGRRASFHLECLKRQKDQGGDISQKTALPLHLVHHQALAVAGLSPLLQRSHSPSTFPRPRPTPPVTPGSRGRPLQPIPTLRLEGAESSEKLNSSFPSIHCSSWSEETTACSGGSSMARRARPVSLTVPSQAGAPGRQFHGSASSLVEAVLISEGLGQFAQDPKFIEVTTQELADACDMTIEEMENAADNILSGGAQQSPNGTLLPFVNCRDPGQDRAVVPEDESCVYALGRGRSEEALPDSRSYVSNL
Sequence (P54290 25-944 partner limits assumed): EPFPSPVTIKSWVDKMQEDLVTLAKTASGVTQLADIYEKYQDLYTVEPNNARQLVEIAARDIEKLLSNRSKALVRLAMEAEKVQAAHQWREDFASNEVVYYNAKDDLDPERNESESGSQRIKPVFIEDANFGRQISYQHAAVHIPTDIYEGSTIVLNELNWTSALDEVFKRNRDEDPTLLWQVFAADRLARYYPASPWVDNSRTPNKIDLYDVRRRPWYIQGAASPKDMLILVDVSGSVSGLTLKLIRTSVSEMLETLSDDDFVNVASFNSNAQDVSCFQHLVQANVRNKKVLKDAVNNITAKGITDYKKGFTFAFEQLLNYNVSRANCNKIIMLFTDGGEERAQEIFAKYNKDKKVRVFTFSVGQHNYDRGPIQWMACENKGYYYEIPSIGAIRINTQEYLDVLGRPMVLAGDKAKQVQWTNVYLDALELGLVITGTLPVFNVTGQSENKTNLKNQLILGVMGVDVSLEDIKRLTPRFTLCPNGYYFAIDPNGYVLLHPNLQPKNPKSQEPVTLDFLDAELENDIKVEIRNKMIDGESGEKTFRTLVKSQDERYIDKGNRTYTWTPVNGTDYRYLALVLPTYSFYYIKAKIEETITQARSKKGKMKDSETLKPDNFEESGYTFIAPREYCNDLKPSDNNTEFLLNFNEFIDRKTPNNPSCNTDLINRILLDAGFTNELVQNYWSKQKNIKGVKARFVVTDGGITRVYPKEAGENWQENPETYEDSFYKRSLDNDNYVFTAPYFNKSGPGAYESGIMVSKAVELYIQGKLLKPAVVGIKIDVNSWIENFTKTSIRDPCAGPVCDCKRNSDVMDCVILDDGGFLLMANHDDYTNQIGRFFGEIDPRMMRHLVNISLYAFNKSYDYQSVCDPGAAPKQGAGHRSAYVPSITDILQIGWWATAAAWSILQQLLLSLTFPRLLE
Sequence (P54290 945-1091 partner limits assumed): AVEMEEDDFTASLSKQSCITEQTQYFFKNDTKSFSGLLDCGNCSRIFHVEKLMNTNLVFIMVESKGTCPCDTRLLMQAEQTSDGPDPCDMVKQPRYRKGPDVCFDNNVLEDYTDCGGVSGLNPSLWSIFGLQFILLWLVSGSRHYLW
Sequence (P54287 whole entry partner): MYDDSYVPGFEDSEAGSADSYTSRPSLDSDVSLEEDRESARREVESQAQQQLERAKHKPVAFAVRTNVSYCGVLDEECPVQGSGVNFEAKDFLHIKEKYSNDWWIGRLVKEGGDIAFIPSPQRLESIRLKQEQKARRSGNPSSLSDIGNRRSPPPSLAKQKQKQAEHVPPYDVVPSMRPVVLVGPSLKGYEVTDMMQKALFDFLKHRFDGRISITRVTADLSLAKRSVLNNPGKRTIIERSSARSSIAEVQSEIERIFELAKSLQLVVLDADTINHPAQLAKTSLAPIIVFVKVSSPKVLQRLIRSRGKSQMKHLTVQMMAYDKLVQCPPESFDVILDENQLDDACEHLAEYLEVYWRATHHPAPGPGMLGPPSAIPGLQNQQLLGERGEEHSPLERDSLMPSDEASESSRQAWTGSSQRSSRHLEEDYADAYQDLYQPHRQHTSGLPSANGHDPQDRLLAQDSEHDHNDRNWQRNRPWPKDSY
Please express pIC50 as -log10 of the molar concentration.

> print(dat)
                                   compound  measured.result
1  O=S(=O)(c1cccc(C(F)(F)F)c1)N(C1CC1)C1CCN(CCOC(c2ccc(F)cc2)c2ccc(F)cc2)CC1             5.65

pIC50 measured on `CN[C@@H](CC(C)C)C(=O)N1CCC(N(CC(C)C)S(=O)(=O)c2cccc(C(F)(F)F)c2)CC1` = 5.04

According to the records, this compound `COc1ccc(C(=O)N2CCC(N(C3CC3)S(=O)(=O)c3cccc(C(F)(F)F)c3)CC2)cc1C(F)(F)F` displays pIC50 of 5.34

`O=C(CCC(c1ccc(F)cc1)c1ccc(F)cc1)N1CCC(N(C2CC2)S(=O)(=O)c2ccccc2)CC1` has a reported pIC50 of 5.49

Form field pIC50, entry NC(Cc1ccc(F)cc1)C(=O)N1CCC(N(C2CC2)S(=O)(=O)c2cccc(C(F)(F)F)c2)CC1 (stereo not drawn) : 5.07

Reported pIC50 of `CCCc1ccc(S(=O)(=O)N2CCC(N(C3CC3)S(=O)(=O)c3cccc(C(F)(F)F)c3)CC2)cc1` : 6.03
